Tested on: S. aureus ATCC 25923
Assay: MIC, twofold microdilution, standard strain
Assay type: cell-based
Details: Staphylococcus aureus, ATCC25923, 18 h
propertyMeasured: MIC (µg/mL)
Give just the number in µg/mL; leave the unit off.

As a guide, the following entries are already answered.
molecule="O=C(O)c1cn(C2CC2)c2cc(N3CCN(C(=O)C4CC4)CC3)c(F)cc2c1=O [Compound 2]" propertymeasured=MIC displayunit=µg/mL observedresult=0.2
molecule="O=C(O)c1cn(C2CC2)c2cc(N3CCN(C(=O)CCBr)CC3)c(F)cc2c1=O [Compound 9]" propertymeasured=MIC displayunit=µg/mL observedresult=0.2
molecule="O=C(O)c1cn(C2CC2)c2cc(N3CCN(C(=O)CCCCCBr)CC3)c(F)cc2c1=O [Compound 12]" propertymeasured=MIC displayunit=µg/mL observedresult=1.6
molecule="O=C(O)c1cn(C2CC2)c2cc(N3CCN(C(=O)CCCCCl)CC3)c(F)cc2c1=O [Compound 6]" propertymeasured=MIC displayunit=µg/mL observedresult=0.2

Turning to the following molecule.
Asked: Consider the molecule O=C(O)c1cn(C2CC2)c2cc(N3CCN(C(=O)CCCCCCl)CC3)c(F)cc2c1=O [Compound 7] and give its measured MIC.
Given back: 0.2
